These entries and their values trace back to the supplement of paper PMC7125110.

B1: glmS ribozyme (parent)
chain: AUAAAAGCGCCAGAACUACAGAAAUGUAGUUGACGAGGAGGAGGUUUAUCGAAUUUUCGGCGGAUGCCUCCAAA

# Variants of: B1
# measurementProtocol: self-cleavage kobs at 640 uM GlcN6P; higher = faster cleavage; RNA array
# particulars: with glucosamine-6-phosphate
Fewer inactive variants are shown than the library holds.
Is self-cleavage kobs at 640 uM GlcN6P at least 0.0003 s⁻¹? Then Satisfied. If not, Not satisfied.

1) A33G G41A C70A	Not satisfied

Q. Hi team, for G35C A36C G40A G62C A64G C70U , is the recorded self-cleavage kobs at 640 uM GlcN6P at or above 0.0003 s⁻¹?
A. Not satisfied

Q. Would you say G35U G37A shows self-cleavage kobs at 640 uM GlcN6P at minimum 0.0003 s⁻¹?
A. Not satisfied

Q. Check this variant for self-cleavage kobs at 640 uM GlcN6P at or above 0.0003 s⁻¹: G44C C71A
A. Not satisfied

Q. In plain terms: is recorded self-cleavage kobs at 640 uM GlcN6P at least 0.0003 s⁻¹ for C8U C16A G35C A36U C71G ?
A. Not satisfied
